Source: paper PMC4890880

Provide the recorded IC50 for the entries that follow.
- System: P. falciparum 3D7 parasites
- Assay Info: Asexual erythrocytic-stage SYBR Green I proliferation assay, 1536-well
- Format: cell-based, Plasmodium falciparum
- Test Parameters: Plasmodium falciparum, 3D7, read-out: P. falciparum (blood) IC50, Table S1, validation set of 50 antimalarials
Numeric answer only, unit nM assumed.

**Q:** Indicate the recorded IC50 value for this compound: c1cc([C@H]2CC[C@]3(CC2)OO[C@]2(O3)C3CC4CC(C3)CC2C4)ccc1OCCN1CCOCC1 [OZ439, reference compound]
**A:** 2.8

**Q:** Indicate the recorded IC50 value for this compound: COc1cc(C)c2c(Oc3cccc(C(F)(F)F)c3)c(OC)cc(NC(C)CCCN)c2n1 (centres unmarked) [Tafenoquine, reference compound]
**A:** 2820

**Q:** Indicate the recorded IC50 value for this compound: CCCCN(CCCC)CCC(O)c1cc2c(Cl)cc(Cl)cc2c2cc(C(F)(F)F)ccc12 (centres unmarked) [Halofantrine, reference compound]
**A:** 1.5

**Q:** Indicate the recorded IC50 value for this compound: C[C@H]1[C@H](N2CCS(=O)(=O)CC2)O[C@@H]2O[C@@]3(C)CC[C@H]4[C@H](C)CC[C@@H]1[C@@]24OO3 [Artemisone, reference compound]
**A:** 0.7
